- SUBJECT OF TEST: CRTH2 (KB8 cells) (Homo sapiens)
- Construct: host or cells: KB8 cells (human CRTH2 expression cell)
- TEST PROTOCOL: CRTH2 antagonist test (PGD2-induced intracellular calcium ion concentration increase in KB8 cells)
- Assay type: cell-based
- ASSAY CONTEXT: PGD2 final concentration 100 nM, Fluo-4-AM fluorescence, read-out: antagonist activity (IC50 value, inhibition of calcium ion concentration increase)
Entries annotated with measured IC50

Field: example entries. Status: answers known.
O=C(O)Cc1cnc(Cc2ccc(C(=O)NCCc3ccc(C4CCCCC4)cc3)cc2)c2ccccc12	< 50 nM
O=C(O)Cc1cnc(C(=O)c2ccc(NCc3ccc(Cl)c(Cl)c3)cc2)c2ccccc12	< 50 nM
COc1ccccc1C(=O)Nc1ccc(C(=O)c2ncc(CC(=O)O)c3ccccc23)cc1	≥ 1000 nM

Prompt: Could you tell me which IC50 is on file for `CCCCC(=O)Nc1ccc(C(=O)c2ncc(CC(=O)O)c3ccccc23)cc1` ?
Completion: 50 to 500 nM

Prompt: Could you tell me which IC50 is on file for `O=C(O)Cc1cnc(C(=O)c2ccc(NC(=O)CCc3ccc(Cl)c(Cl)c3)cc2)c2ccccc12` ?
Completion: < 50 nM

Prompt: Could you tell me which IC50 is on file for `O=C(O)Cc1cnc(C(=O)c2ccc(OCc3ccc(Cl)c(Cl)c3)cc2)c2ccccc12` ?
Completion: 50 to 500 nM

Prompt: Could you tell me which IC50 is on file for `O=C(O)Cc1cnc(Cc2ccccc2OCc2ccc(Cl)cc2)c2ccccc12` ?
Completion: ≥ 1000 nM

Prompt: Could you tell me which IC50 is on file for `O=C(O)Cc1cnc(C(=O)c2ccc(NC(=O)c3ccc4ccccc4c3)cc2)c2ccccc12` ?
Completion: < 50 nM

Prompt: Could you tell me which IC50 is on file for `O=C(O)Cc1cnc(Cc2ccc(C(=O)NCCc3ccc(OC(F)(F)F)cc3)cc2)c2ccccc12` ?
Completion: < 50 nM

Prompt: Could you tell me which IC50 is on file for `O=C(O)Cc1cnc(Cc2ccc(C(=O)NCCc3cc(Cl)ccc3Cl)cc2)c2ccccc12` ?
Completion: 50 to 500 nM

Prompt: Could you tell me which IC50 is on file for `COc1cc(C(=O)Nc2ccc(C(=O)c3ncc(CC(=O)O)c4ccccc34)cc2)cc(OC)c1OC` ?
Completion: 50 to 500 nM

====

- SUBJECT OF TEST: human CRTH2 expression cell KB8 (Homo sapiens, UniProt Q9Y5Y4)
- Construct: host or cells: KB8 cells (human CRTH2 expression cell)
- Sequence (Q9Y5Y4 1-395): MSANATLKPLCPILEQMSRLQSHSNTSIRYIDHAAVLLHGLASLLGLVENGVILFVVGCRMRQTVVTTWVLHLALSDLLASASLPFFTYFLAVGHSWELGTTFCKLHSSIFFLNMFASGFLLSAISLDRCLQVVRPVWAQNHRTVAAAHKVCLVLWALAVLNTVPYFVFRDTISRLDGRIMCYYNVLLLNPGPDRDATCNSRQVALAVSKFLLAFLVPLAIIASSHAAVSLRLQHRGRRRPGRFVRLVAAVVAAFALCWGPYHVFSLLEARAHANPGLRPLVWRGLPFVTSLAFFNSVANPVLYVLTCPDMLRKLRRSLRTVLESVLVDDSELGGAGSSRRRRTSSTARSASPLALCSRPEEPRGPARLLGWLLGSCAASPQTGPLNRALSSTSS
- TEST PROTOCOL: CRTH2 binding test (3H-PGD2 binding to KB8 cells)
- ASSAY CONTEXT: 3H-PGD2 5 nM, 4° C., one hour, read-out: CRTH2 binding inhibitory activity IC50 value
OBSERVED PROPERTY: IC50 (nM)

O=C(O)Cc1cnc(C(=O)c2ccc(NC(=O)c3cccc(Br)c3)cc2)c2ccccc12 [Example 75]	2.9
O=C(O)Cc1cnc(C(=O)c2ccc(NC(=O)C3CCC(c4ccc(Cl)cc4)CC3)cc2)c2ccccc12 (centres unmarked) [Example 82]	2.8
O=C(O)Cc1cnc(C(=O)c2ccc(NC(=O)c3cc4ccccc4[nH]3)cc2)c2ccccc12 [Example 18]	3.5

P = O=C(O)Cc1cnc(C(=O)c2ccc(OCCOc3ccc(Cl)cc3)cc2)c2ccccc12 [Example 143]
Q = CCCCCc1ccc(C(=O)Nc2ccc(C(=O)c3ncc(CC(=O)O)c4ccccc34)cc2)cc1 [Example 57]
Prompt: Would you mind telling me which has the lower recorded IC50 between P and Q ? I would appreciate it if you answered with the label of your choice.
Completion: Q
